Numbers sourced from patent US9073855B2.

System Name: GST-Bcl-XL (Homo sapiens, UniProt Q07817)
Sequence (Q07817 whole entry): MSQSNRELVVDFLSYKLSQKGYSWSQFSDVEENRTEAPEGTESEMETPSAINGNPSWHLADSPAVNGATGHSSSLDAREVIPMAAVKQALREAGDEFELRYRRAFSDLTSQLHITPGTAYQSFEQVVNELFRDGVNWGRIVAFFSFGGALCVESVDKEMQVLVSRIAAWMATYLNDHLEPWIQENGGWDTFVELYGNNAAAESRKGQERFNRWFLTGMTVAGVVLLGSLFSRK
Protocol Description: TR-FRET binding assay, GST-Bcl-XL with F-Bak peptide probe
Test Context: TR-FRET Binding Affinity, GST-Bcl-XL, F-Bak peptide probe
pKi: −log10 of the molar value.

[
  {
    "Compound": "CC1(C)CCC(CN2CCN(c3ccc(C(=O)NS(=O)(=O)c4ccc(N[C@@H]5CCN(Cc6ccccc6)C[C@@H]5O)c([N+](=O)[O-])c4)c(Oc4ccc5[nH]ccc5c4)c3)CC2)=C(c2ccc(Cl)cc2)C1",
    "System Name": "GST-Bcl-XL (Homo sapiens, UniProt Q07817)",
    "Value Modifier": "<",
    "pKi": 6.18
  },
  {
    "Compound": "CC1(C)CCC(CN2CCN(c3ccc(C(=O)NS(=O)(=O)c4ccc(NN5CCS(=O)(=O)CC5)c([N+](=O)[O-])c4)c(Oc4ccc5[nH]ccc5c4)c3)CC2)=C(c2ccc(Cl)cc2)C1",
    "System Name": "GST-Bcl-XL (Homo sapiens, UniProt Q07817)",
    "Value Modifier": "=",
    "pKi": 6.54
  },
  {
    "Compound": "CNc1ccc(S(=O)(=O)NC(=O)c2ccc(N3CCN(CC4=C(c5ccc(Cl)cc5)CC(C)(C)CC4)CC3)cc2Oc2cccc3[nH]ccc23)cc1[N+](=O)[O-]",
    "System Name": "GST-Bcl-XL (Homo sapiens, UniProt Q07817)",
    "Value Modifier": "=",
    "pKi": 6.42
  },
  {
    "Compound": "CN1CCC(Nc2ccc(S(=O)(=O)NC(=O)c3ccc(N4CCN(CC5=C(c6ccc(Cl)cc6)CCC5)CC4)cc3Oc3cccc4[nH]ccc34)cc2[N+](=O)[O-])CC1",
    "System Name": "GST-Bcl-XL (Homo sapiens, UniProt Q07817)",
    "Value Modifier": "<",
    "pKi": 6.18
  },
  {
    "Compound": "CN1CCC(O)(CNc2ccc(S(=O)(=O)NC(=O)c3ccc(N4CCN(CC5=C(c6ccc(Cl)cc6)CC(C)(C)CC5)CC4)cc3Oc3ccc4[nH]ccc4c3)cc2[N+](=O)[O-])CC1",
    "System Name": "GST-Bcl-XL (Homo sapiens, UniProt Q07817)",
    "Value Modifier": "=",
    "pKi": 8.03
  },
  {
    "Compound": "O=C(NS(=O)(=O)c1ccc(NC2CCN(C3CCOCC3)CC2)c([N+](=O)[O-])c1)c1ccc(N2CCN(CC3=C(c4ccc(Cl)cc4)CCC(O)C3)CC2)cc1Oc1ccc2[nH]ccc2c1 (stereo not shown)",
    "System Name": "GST-Bcl-XL (Homo sapiens, UniProt Q07817)",
    "Value Modifier": "=",
    "pKi": 8.46
  },
  {
    "Compound": "CC1(C)CCC(CN2CCN(c3ccc(C(=O)NS(=O)(=O)c4ccc(NC5(CO)CCOCC5)c([N+](=O)[O-])c4)c(Oc4ccc5[nH]ccc5c4)c3)CC2)=C(c2ccc(Cl)cc2)C1",
    "System Name": "GST-Bcl-XL (Homo sapiens, UniProt Q07817)",
    "Value Modifier": "<",
    "pKi": 6.18
  },
  {
    "Compound": "CC1(C)CCC(CN2CCN(c3ccc(C(=O)NS(=O)(=O)c4cnc(NCC5CCOCC5)c(-c5nccs5)c4)c(Oc4cccc5[nH]ccc45)c3)CC2)=C(c2ccc(Cl)cc2)C1",
    "System Name": "GST-Bcl-XL (Homo sapiens, UniProt Q07817)",
    "Value Modifier": "<",
    "pKi": 6.18
  },
  {
    "Compound": "CN(C)CCOc1ccc(-c2ccc(Cl)cc2)c(CN2CCN(c3ccc(C(=O)NS(=O)(=O)c4ccc(NCC5CCOCC5)c([N+](=O)[O-])c4)c(Oc4cccc5[nH]ccc45)c3)CC2)c1",
    "System Name": "GST-Bcl-XL (Homo sapiens, UniProt Q07817)",
    "Value Modifier": "=",
    "pKi": 7.93
  },
  {
    "Compound": "CC1(C)CCC(CN2CCN(c3ccc(C(=O)NS(=O)(=O)c4ccc(NCC(F)F)c([N+](=O)[O-])c4)c(Oc4ccc5[nH]ccc5c4)c3)CC2)=C(c2ccc(Cl)cc2)C1",
    "System Name": "GST-Bcl-XL (Homo sapiens, UniProt Q07817)",
    "Value Modifier": "<",
    "pKi": 6.18
  }
]
